Here, each record is paired with measured Kd data.
# STUDY TARGET: Pig ActRIIA (pig, UniProt F1S0H6 20-135);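 note: immunoglobulin held at a fixed level and mixed with serially diluted antigen overnight at 4 °C to equilibrium, then unbound antibody captured on antigen-coated plates and read by electrochemiluminescence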
# TEST DETAILS: MSD-SET
API: value field is a number in nM; no unit string.

1) Schwardamaga Fab (Fab, V domains shown, Fab) VH: QVQLVQSGAEVKKPGSSVKVSCKASGYTFTSSYINWVRQAPGQGLEWMGTINAVSGSTSYAQKFQGRVTITADTSTSTAYMELSSLRSEDTAVYYCARGGWFDYWGQGTLVTVSS VL: QSALTQPRSVSGSPGQSVTISCTGTSSDVGSANYVNWYQQHPGKAPKPMIYGVSRRPSGVPDRFSGSKSGNTASLTISGLQAEDEADYYCGTFAGGKYYGVFGGGTKLTVL : 0.029
2) Ofaschlupfer Fab (Fab, V domains shown, Fab) VH: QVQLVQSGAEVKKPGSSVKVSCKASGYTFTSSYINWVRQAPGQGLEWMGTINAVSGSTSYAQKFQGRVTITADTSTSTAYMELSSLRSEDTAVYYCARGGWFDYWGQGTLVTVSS VL: QSALTQPRSVSGSPGQSVTISCTGTSSDVGSKNYVNWYQQHPGKAPKLMIYGVSKRESGVPDRFSGSKSGNTASLTISGLQAEDEADYYCGTFAGGKYYGVFGGGTKLTVL : 0.01
3) Bimagrumab Fab (Fab, V domains shown, Fab) VH: QVQLVQSGAEVKKPGASVKVSCKASGYTFTSSYINWVRQAPGQGLEWMGTINPVSGSTSYAQKFQGRVTMTRDTSISTAYMELSRLRSDDTAVYYCARGGWFDYWGQGTLVTVSS VL: QSALTQPASVSGSPGQSITISCTGTSSDVGSYNYVNWYQQHPGKAPKLMIYGVSKRPSGVSNRFSGSKSGNTASLTISGLQAEDEADYYCGTFAGGSYYGVFGGGTKLTVL : 0.188

Let us examine a further case.
Supply Kd value. Item: Soidawürstle Fab (Fab, V domains shown, Fab; also called Soidawüsrstel (Fab)) VH: QVQLVQSGAEVRKPGSSVKVSCKASGYTFTSSYINWVRQAPGQGLEWMGTINPVSGSTSYAQKFQGRVTITADTSTSTAYMELSSLRSEDTAVYYCARGGWFDYWGQGTLVTVSS VL: QSALTQPRSVSGSPGQSVTISCTGTSSDVGSYNRVNWYQQHPGKAPKLMIYGVSKRESGVPDRFSGSKSGNTASLTISGLQAEDEADYYCGTFAGGRYYGVFGGGTKLTVL
0.022
